System: DeltatarO mutant
Experiment: S. aureus survival, RN4220 and DeltatarO strains – OD600, teichoic acid synthesis inhibitors, primary screen (AID 463173)
Settings: S. aureus RN4220 wild type/DeltatarO growth, OD600, 18 h, stronger effect = lower value, screened at 18.75 µg/mL (by protocol)
The whole screen tested about 52,000 compounds, of which about 4,300 (8.3%) were called active. This is one part of a sample in which actives are shown more often than they occur.
reported.endpoint: survival (%)
Lab book: enter the figure in %, no units written.

compound.structure	reported.endpoint	unit.descriptor	number
Cc1cc(Oc2nc3ccccn3c(=O)c2/C=C(\C#N)c2nc3ccccc3s2)ccc1Cl	survival	%	63
CCN(c1cc(C)cc(C)c1)S(=O)(=O)c1nnc(NC(=O)c2ccco2)s1	survival	%	52
CCc1ccc(-n2nc(CO)c(C(=O)NCCCc3ccccc3)n2)cc1	survival	%	95

Prompt: Any idea what survival was measured for `CCOC(=O)c1c(C)oc2nc(C)nc(NCc3ccccc3OCC)c12` ?
Response: 102

Prompt: Any idea what survival was measured for `Cn1c(=O)n(C)c2cc(CNCc3ccccc3)ccc21` ?
Response: 88

Prompt: Any idea what survival was measured for `CCOc1ccc(-n2nc(CO)c(C(=O)NCc3cccnc3)n2)cc1` ?
Response: 44

Prompt: Any idea what survival was measured for `CN(c1ccccc1)S(=O)(=O)c1nnc(NC(=O)c2ccco2)s1` ?
Response: 47

Prompt: Any idea what survival was measured for `CCOc1ccc(-n2nc(CO)c(C(=O)NCC(c3ccccc3)c3ccccc3)n2)cc1` ?
Response: 48

Prompt: Any idea what survival was measured for `CCN(c1ccc(Cl)cc1)S(=O)(=O)c1nnc(NC(=O)c2ccco2)s1` ?
Response: 67

Prompt: Any idea what survival was measured for `CN1C(=O)c2ccccc2Sc2ccc(NC(=O)NCc3cccc(Cl)c3)cc21` ?
Response: 78

* * *

Test system: DeltatarO mutant
Test: S. aureus survival, RN4220 and DeltatarO strains – OD600, teichoic acid synthesis inhibitors, primary screen (AID 463173)
Details: S. aureus RN4220 wild type/DeltatarO growth, OD600, 18 h, screened at 18.75 µg/mL (by protocol)
The campaign covered roughly 52,000 compounds. About 4,300 (8.3%) were called active. Rule as the data show it: active = survival mostly below about 52% (no sharp cut-off); inactive = mostly above about 56%. Only a selection was taken, and actives are over-represented in it overall.
Outcome (select one): active, inactive

Record excerpt, results attached:
compound.structure	assigned.label
O=C(CSc1nc2c([nH]c3ccccc32)c(=O)n1-c1ccccc1)N1CCCCC1	inactive
CCSc1nc2c([nH]c3ccccc32)c(=O)n1-c1cccc(OC)c1	inactive
COc1cccc(-n2c(SCC(=O)N3CCCCC3)nc3c([nH]c4ccccc43)c2=O)c1	active
COc1ccc(-n2c(SCC(=O)NC3CCCCC3)nc3c([nH]c4ccccc43)c2=O)cc1	active

Lab note: next compound to report on.
Prompt: Recorded test call requested for `CCSc1nc2c([nH]c3ccccc32)c(=O)n1-c1ccc(OC)cc1`
Response: active

* * *

System: DeltatarO mutant
Experiment: S. aureus survival, RN4220 and DeltatarO strains – OD600, teichoic acid synthesis inhibitors, primary screen (AID 463173)
Details: S. aureus RN4220 wild type/DeltatarO growth, OD600, 18 h, stronger effect = lower value, screened at 18.75 µg/mL (by protocol)
Screen size: about 52,000 compounds; about 4,300 (8.3%) were called active. The sample holds actives, similar compounds and a random draw of the others, so the mix is not that of the screen.
survival strictly less than 90% = label 1. Otherwise label 0.

Record excerpt, results attached:
compound.structure	measured.target	assigned.label
CCOC(=O)c1cccc(Nc2c3c(nc4ccccc24)CCC3)c1	DeltatarO mutant	label 1
Fc1ccccc1Nc1c2c(nc3ccccc13)CCC2	DeltatarO mutant	label 0
COc1cc(Cl)c(C)cc1Nc1c2c(nc3ccccc13)CCC2	DeltatarO mutant	label 1
COc1ccc(Nc2c3c(nc4ccc(NC(=O)c5cc(Cl)ccc5OC)cc24)CCCC3)cc1OC	DeltatarO mutant	label 1
CC1CCN(C(=O)COc2ccc(C(C)C)cc2)CC1	DeltatarO mutant	label 1

Lab note: next compound to report on.
Prompt: Item `CCCCOc1nnc(-c2ccc(OCC)cc2)c2ccccc12` : survival beneath 90%, strictly?
Response: label 1

* * *

System: DeltatarO mutant
Experiment: S. aureus survival, RN4220 and DeltatarO strains – OD600, teichoic acid synthesis inhibitors, primary screen (AID 463173)
Conditions: S. aureus RN4220 wild type/DeltatarO growth, OD600, 18 h, screened at 18.75 µg/mL (by protocol)
Hit rate of the full screen: of about 52,000 compounds, about 4,300 (8.3%) were called active. No stated cut-off is given here; in the data, active means survival mostly below about 52% (no sharp cut-off); inactive means mostly above about 56%. The full list was thinned out, with actives kept by preference.
Outcome (select one): active, inactive

Prompt: Recorded test call requested for CCC1CN(C(=O)N2CCC(C(=O)NCCN(CC)CC)CC2)c2cc(C)ccc2O1 (configuration not stated)
Response: inactive

Prompt: Recorded test call requested for `Cc1ccc(C(=O)n2nc(C)c(S(=O)(=O)N3CCCCCC3)c2C)cc1`
Response: inactive

Prompt: Recorded test call requested for `COc1cc(NC(=O)CCN2CCN(c3ccccc3)CC2)cc(OC)c1`
Response: inactive

Prompt: Recorded test call requested for `Cc1nn(C(=O)c2ccc(Cl)cc2)c(C)c1S(=O)(=O)N1CCOCC1`
Response: inactive

Prompt: Recorded test call requested for `O=C(Nc1ccc2nc(-c3ccccc3)[nH]c2c1)c1ccco1`
Response: active

* * *

Tested on: DeltatarO mutant
Assay: S. aureus survival, RN4220 and DeltatarO strains – OD600, teichoic acid synthesis inhibitors, primary screen (AID 463173)
Conditions: S. aureus RN4220 wild type/DeltatarO growth, OD600, 18 h, stronger effect = lower value, screened at 18.75 µg/mL (by protocol)
About 4,300 (8.3%) of roughly 52,000 compounds were called active. Many of the other results were omitted from the sample, so actives are more common in it than they were.
reported.endpoint: survival

Here's what some known entries look like.
compound	survival
CCOc1ccccc1CNC(=O)c1cc2oc3ccccc3c2n1CC	2% (active)
Cc1cc(C)c(NC(=O)CN(c2ccccc2)S(=O)(=O)N(C)C)c(C)c1	66% (inactive)

Prompt: Provide value of survival for this record tested with DeltatarO mutant: `CCOc1ccc(CNC(=O)c2cc3oc4ccccc4c3n2C)cc1`
Response: 95% (inactive)

Prompt: Provide value of survival for this record tested with DeltatarO mutant: `Cn1c(C(=O)NCc2ccccc2F)cc2oc3ccccc3c21`
Response: 55% (inactive)

* * *

Tested on: DeltatarO mutant
Experiment: S. aureus survival, RN4220 and DeltatarO strains – OD600, teichoic acid synthesis inhibitors, primary screen (AID 463173)
Details: S. aureus RN4220 wild type/DeltatarO growth, OD600, 18 h, screened at 18.75 µg/mL (by protocol)
Screen size: about 52,000 compounds; about 4,300 (8.3%) were called active. No stated cut-off is given here; in the data, active means survival mostly below about 52% (no sharp cut-off); inactive means mostly above about 56%. The full list was thinned out, with actives kept by preference.
Outcome (select one): class 1 for active, class 0 for inactive

compound	assigned.label
CCCn1c(SCc2nc(-c3ccccc3C)no2)nnc1-c1ccc(Cl)cc1	class 0
CCCCNC(=O)c1ccc2c(=O)n(Cc3ccc(OC)cc3)c(=O)[nH]c2c1	class 0
COc1ccc(-n2c(SCc3nc(-c4ccc(Cl)cc4)no3)nnc2-c2ccncc2)cc1	class 1
COc1ccc(-c2noc(CSc3nnc(-c4ccncc4)n3-c3ccc(C)cc3)n2)cc1	class 0
COc1ccc(-c2noc(CSc3nnc(C)n3-c3ccc(C)cc3)n2)cc1	class 1
CCCn1c(SCc2nc(-c3ccccc3OCC)no2)nnc1-c1ccc(Cl)cc1	class 1
Cc1ccc(-c2noc(CSc3nnc(C)n3-c3ccc(C)cc3)n2)cc1	class 0
O=C(NCCOCCn1c(=O)oc2ccccc21)Nc1cccc(Cl)c1	class 0
Cn1c(=O)oc2cc(S(=O)(=O)N3CCCC(C(=O)NCc4ccc(F)cc4)C3)ccc21 (stereo not given)	class 0

Prompt: Recorded test call requested for `COc1ccc(-c2noc(CSc3nnc(-c4ccncc4)n3-c3ccccc3)n2)cc1`
Response: class 0

* * *

# maps each entry to its survival
System: DeltatarO mutant
Experiment: S. aureus survival, RN4220 and DeltatarO strains – OD600, teichoic acid synthesis inhibitors, primary screen (AID 463173)
Details: S. aureus RN4220 wild type/DeltatarO growth, OD600, 18 h, stronger effect = lower value, screened at 18.75 µg/mL (by protocol)
The whole screen tested about 52,000 compounds, of which about 4,300 (8.3%) were called active. For the sample, actives were picked, then their nearest neighbours and some compounds at random.
Lab book: enter the figure in %, no units written.

Here's what some known entries look like.
molecule	unit.descriptor	survival
O=S(=O)(c1ccccc1)N1CCCC(c2nc(-c3cccs3)no2)C1 (stereo unspecified)	%	67
CCOC(=O)c1c(-c2ccccc2)oc2ccc(N(C(C)=O)S(=O)(=O)c3ccc(CC)cc3)cc12	%	69
CC1(C)OC(=O)C(=C2CCCCCN2)C(=O)O1	%	99
CNC(=O)c1c(-c2ccccc2)oc2ccc(OC)cc12	%	90
CCOC(=O)c1c(-c2ccccc2)oc2ccc(OCc3ccccc3Br)cc12	%	38

Prompt: Provide value of survival for this record tested with DeltatarO mutant: `C=CCSc1nnc(-c2ccccc2)n1-c1ccccc1`
Response: 103
